# TGT: T1, Recombinant Human DLL4 (delta-like protein 4) (human, UniProt Q9NR61 27-524)
# T1 construct: also called rHuman DLL4; Delta-like 4
# PROTOCOL: ELISA on coated DLL4, Fab at 100 nM (2-fold serial dilution)
ELISA signal by entry:
# answer = number (no unit)

BINDER: Fab VH5-51_IGHD5-18*01>3_IGHJ4*01 G100K/G104T G35V & V3-4_IGLJ1*01 (Fab, V domains shown, Fab; also called H:KT G35V & L:parent) VH: EVQLVQSGAEVKKPGESLKISCKGSGYSFTSYWIVWVRQMPGKGLEWMGIIYPGDSDTRYSPSFQGQVTISADKSISTAYLQWSSLKASDTAMYYCARRKYSYTYDYFDYWGQGTLVTVSS VL: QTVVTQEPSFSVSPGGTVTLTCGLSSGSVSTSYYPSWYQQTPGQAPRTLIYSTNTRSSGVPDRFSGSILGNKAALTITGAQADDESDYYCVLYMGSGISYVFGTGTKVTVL
ELISA signal: 0.271

Return reported ELISA signal; argument: Fab VH5-51_IGHD5-18*01>3_IGHJ4*01 G100K/G104T (KT) & V3-4_IGLJ1*01 S52G (Fab, V domains shown, Fab; also called H:KT & L:S52G) VH: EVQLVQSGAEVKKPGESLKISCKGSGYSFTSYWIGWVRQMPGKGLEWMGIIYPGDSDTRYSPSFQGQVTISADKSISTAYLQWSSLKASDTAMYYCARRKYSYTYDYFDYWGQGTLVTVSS VL: QTVVTQEPSFSVSPGGTVTLTCGLSSGSVSTSYYPSWYQQTPGQAPRTLIYGTNTRSSGVPDRFSGSILGNKAALTITGAQADDESDYYCVLYMGSGISYVFGTGTKVTVL
0.209

How about Fab VH5-51_IGHD5-18*01>3_IGHJ4*01 G100K/G104T S28R & V3-4_IGLJ1*01 (Fab, V domains shown, Fab; also called H:KT S28R & L:parent; H:KT S28R & L:wt) VH: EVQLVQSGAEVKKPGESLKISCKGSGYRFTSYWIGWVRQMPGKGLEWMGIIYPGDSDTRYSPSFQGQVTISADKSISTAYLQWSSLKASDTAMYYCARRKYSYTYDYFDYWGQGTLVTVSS VL: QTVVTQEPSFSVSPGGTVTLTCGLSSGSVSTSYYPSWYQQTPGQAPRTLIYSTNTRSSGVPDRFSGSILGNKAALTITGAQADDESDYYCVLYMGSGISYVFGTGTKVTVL ?
0.529

The values you see were collected from patent US20120316071A1.
